# Test system: ANKK1;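 further: KINOMEscan kinase panel screen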
# TEST PARAMETERS: concentration: 1 μM, replicates: in singlicate; n = 1
# if measured %Inh < 1%: Y  # else: N

{"COMPOUND": "CSc1ccc(NC2=C(c3ccccc3Cl)C(=O)NC2=O)cc1 [SB-342411]", "TEST TARGET": "ANKK1", "CLASSIFICATION": "N"}
{"COMPOUND": "COc1cc2ncnc(Nc3ccc(OCc4ccccc4Br)c(Cl)c3)c2cc1OC.Cl [GI261590]", "TEST TARGET": "ANKK1", "CLASSIFICATION": "Y"}
{"COMPOUND": "COc1ccc(-c2oc3ncnc(N)c3c2-c2ccc(OC)cc2)cc1 [SB-589132]", "TEST TARGET": "ANKK1", "CLASSIFICATION": "Y"}
{"COMPOUND": "N#Cc1ccc(Oc2ccc(Nc3ncnc4cc[nH]c34)cc2Cl)cc1", "TEST TARGET": "ANKK1", "CLASSIFICATION": "N"}
{"COMPOUND": "Fc1cccc(COc2ccc(Nc3ncnc4cc[nH]c34)cc2Cl)c1", "TEST TARGET": "ANKK1", "CLASSIFICATION": "N"}
{"COMPOUND": "Cc1ccc(NC(=O)c2cccc(C#N)c2)cc1-c1ccc(C(=O)Nc2ccncc2)cc1 [GSK1398463]", "TEST TARGET": "ANKK1", "CLASSIFICATION": "Y"}
{"COMPOUND": "Cl.Cl.c1ccc(-c2cc3ccncc3cc2OC2CCNCC2)cc1 [GSK1122999]", "TEST TARGET": "ANKK1", "CLASSIFICATION": "Y"}
{"COMPOUND": "Clc1cc(Nc2ncnc3cc[nH]c23)ccc1OCc1ccccn1", "TEST TARGET": "ANKK1", "CLASSIFICATION": "N"}
{"COMPOUND": "Cc1ccc(C)c(NC(=O)NCCNc2ccnc(Nc3ccc(F)cc3)n2)c1 [GSK1379878]", "TEST TARGET": "ANKK1", "CLASSIFICATION": "N"}
{"COMPOUND": "Nc1nc(-c2cccnc2)c(-c2ccnc3ccccc23)s1 [GW684083]", "TEST TARGET": "ANKK1", "CLASSIFICATION": "N"}
{"COMPOUND": "CN1c2ccc(-c3ccc(C(=O)NCCO)cc3)cc2-c2[nH]ncc2S1(=O)=O", "TEST TARGET": "ANKK1", "CLASSIFICATION": "Y"}
{"COMPOUND": "Nc1nc(-c2ccccn2)c(-c2ccnc3ccccc23)s1 [GW548057]", "TEST TARGET": "ANKK1", "CLASSIFICATION": "N"}
{"COMPOUND": "OCCOCCn1ccc2ncnc(Nc3ccc(Oc4cccc(Cl)c4)c(Cl)c3)c21", "TEST TARGET": "ANKK1", "CLASSIFICATION": "Y"}
{"COMPOUND": "C[C@H]1CC[C@@H](C(=O)Nc2ccccc2)CN1c1cc(-c2ccc3c(N)n[nH]c3c2)nc(N)n1 [GSK2283293]", "TEST TARGET": "ANKK1", "CLASSIFICATION": "N"}
{"COMPOUND": "Clc1cccc(-c2nc(Nc3ccncc3)c3ccccc3n2)c1 [GW873004]", "TEST TARGET": "ANKK1", "CLASSIFICATION": "Y"}
{"COMPOUND": "CCC(CC)(CC)n1cnc2c(N)ncnc21 [SKF-97620]", "TEST TARGET": "ANKK1", "CLASSIFICATION": "N"}
{"COMPOUND": "CS(=O)(=O)CCNCc1nc(-c2ccc3ncnc(Nc4ccc(OCc5cccc(F)c5)c(Cl)c4)c3c2)cs1.Cl [GW583340]", "TEST TARGET": "ANKK1", "CLASSIFICATION": "Y"}
{"COMPOUND": "O=c1cc(N2CCOCC2)nc2n(Cc3cccc(Cl)c3)ccn12 [GSK2296823]", "TEST TARGET": "ANKK1", "CLASSIFICATION": "N"}
{"COMPOUND": "COc1cc2c(Nc3cccc(NC(=O)c4ccccc4)c3)ncnc2cc1OCCCN1CCOCC1 [GSK223810]", "TEST TARGET": "ANKK1", "CLASSIFICATION": "N"}
{"COMPOUND": "Nc1nc(-c2ccc3c(N)n[nH]c3c2)cc(N2CCCCC2)n1 [GSK2228768]", "TEST TARGET": "ANKK1", "CLASSIFICATION": "N"}

These entries and their values trace back to paper PMC5540273.
